Test system: CD2F1 mice, L1210 leukemia ip, survival T/C
assayNotes: NCI In Vivo Anticancer Drug Screen. Data for tumor model L1210 Leukemia (intraperitoneal) in CD2F1 (CDF1) mice
conditionContext: endpoint: mean survival time; dose: 25.0 mg/kg/injection; schedule: Q04DX002 (ip); vehicle: saline with Tween-80; higher = longer survival
Toxic doses and inconclusive results are not listed.
experimentalEndpoint: T/C

>>> recordedmeasurement("CC(=O)Nc1ccncn1")
"97 % of control"
>>> recordedmeasurement("C1CC[N-]CC1.C1CC[N-]CC1.[Cl][Pd][Cl]")
"89 % of control"
>>> recordedmeasurement("COC1CCC(/C=C(\\C#N)C2CCC([N+](=O)[O-])CC2)CC1Br (stereo not drawn)")
"105 % of control"
>>> recordedmeasurement("COc1ccc(C(O)(c2ccccc2)C(O)c2ccccc2)cc1 (stereo not drawn)")
"86 % of control"
>>> recordedmeasurement("O=C(NCC#CCN1CCCC1)Nc1cccc(Cl)c1")
"95 % of control"
>>> recordedmeasurement("CCOc1cc2ccc3c4cc(OC)c(OC)cc4c[n+](C)c3c2cc1OCC")
"107 % of control"
>>> recordedmeasurement("CCCCN(Cl)CCCC")
"92 % of control"
>>> recordedmeasurement("O=C(O)CCCCCCCC(Br)C(Br)CCCCCCCC(=O)O (stereo not drawn)")
"95 % of control"

====

Test system: CD2F1 mice, L1210 leukemia ip, survival T/C
assayNotes: NCI In Vivo Anticancer Drug Screen. Data for tumor model L1210 Leukemia (intraperitoneal) in CD2F1 (CDF1) mice
conditionContext: endpoint: mean survival time; dose: 50.0 mg/kg/injection; schedule: Q04DX003 (ip); vehicle: saline
Inconclusive results and toxic doses are left out. Rule for the calls: active = survival T/C of 150% or more; inactive = T/C below 125% in these data.
Labels: t = active, f = inactive

>>> answerlabel("CCN(CC)Cc1cc(Nc2nc(NC3CCC(N(C)C)CC3)c3ccccc3n2)ccc1OC (stereo not given)")
"f"
>>> answerlabel("N=C(N)SC(c1ccccc1)c1ccccc1")
"f"
>>> answerlabel("C[N+]1(C)CCC(OC(=O)C(O)(c2ccccc2)C2CCCC2)C1 (stereo not given)")
"f"
>>> answerlabel("COc1cc2cc3c4cc(OC)c(OC)cc4cc[n+]3c(C)c2cc1OC (tested in a mixture with another compound)")
"f"
>>> answerlabel("NNC(=O)COc1ccccc1")
"f"
>>> answerlabel("CC1(C)C=CS1(=O)=O")
"f"
>>> answerlabel("NCC(S)c1ccc(Cl)cc1 (stereo not given)")
"f"
>>> answerlabel("CC(=O)Nc1ccc(C=O)cc1")
"f"
>>> answerlabel("CC(C(=O)N1c2ccccc2Sc2ccccc21)[N+](C)(C)C (stereo not given)")
"f"
>>> answerlabel("O=c1[nH]cc(F)c(=O)[nH]1")
"t"

====

Tested on: CD2F1 mice, L1210 leukemia ip, survival T/C
assayNotes: NCI In Vivo Anticancer Drug Screen. Data for tumor model L1210 Leukemia (intraperitoneal) in CD2F1 (CDF1) mice
conditionContext: endpoint: mean survival time; dose: 200.0 mg/kg/injection; schedule: Q04DX003 (ip); vehicle: Klucel (hydroxypropylcellulose) (HPC); higher = longer survival
Toxic doses and inconclusive results are not listed.
experimentalEndpoint: T/C

>>> recordedmeasurement("CC(=O)Nc1ncc2ccccc2c1-c1ccc(N(CCCl)CCCl)cc1")
"101 % of control"
>>> recordedmeasurement("O=[N+]([O-])c1cc(Cl)ccc1Nc1ccccc1")
"102 % of control"
>>> recordedmeasurement("O=C(N/N=C\\c1c(Cl)cccc1Cl)c1ccccc1")
"100 % of control"
>>> recordedmeasurement("CC(=O)N(C(C)=O)c1ccc2[nH]c3c(N(C(C)=O)C(C)=O)cccc3c2c1")
"96 % of control"
>>> recordedmeasurement("CCOC1([N+](=O)[O-])c2ccccc2-c2nc3ccccc3cc21 (stereo unspecified)")
"97 % of control"
>>> recordedmeasurement("CC(=O)N(C)N=Nc1ccc(F)cc1")
"105 % of control"
